Test: recombinant barcode read abundance after kanamycin selection (control-corrected) (log10(CPM+1)); higher = more efficient recombination; sequences stand for … in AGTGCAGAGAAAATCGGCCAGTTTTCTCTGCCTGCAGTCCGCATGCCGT…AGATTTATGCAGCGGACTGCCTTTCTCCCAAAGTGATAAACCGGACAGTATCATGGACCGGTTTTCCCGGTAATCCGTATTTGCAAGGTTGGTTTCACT; site = the 11-nt target;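 further: IS621 recombinase and bridge RNA in Escherichia coli cells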
Label satisfied when recombinant barcode read abundance (log10) is at or above 0.2; anything below gets not satisfied.

GTTTGGACTTGGGTTCTAACCTGTTGCTA (site GTTTGGACTCA) = not satisfied
CCGTCGTCTTGGGTTCTAACCTGTTGCCT (site CCGTCATCTAG) = not satisfied
GATGTAACTTGGGTTCTAACCTGTTGCCT (site GATGTAACTAG) = satisfied
GGACGATCTTGGGTTCTAACCTGTTGCCT (site GGACTATCTAG) = satisfied
GAGGGCCCTTGGGTTCTAACCTGTTGCCG (site GAGGGCCCTCG) = satisfied
GTCAAGCCTTGGGTTCTAACCTGTTGCTG (site GTCAACCCTCA) = not satisfied
AGAGAACCTTGGGTTCTAACCTGTTGCCT (site GGAGAACCTAG) = satisfied
AGGAGCCCTTGGGTTCTAACCTGTTGCGA (site AGGAGCCCTTC) = satisfied

Prompt: Please tell me: is the sequence CTCCGCCCTTGGGTTCTAACCTGTTGCTT (site CTCCGCCCTAA) at or over 0.2 in terms of recombinant barcode read abundance (log10)?
Response: satisfied

Prompt: Note, next up: CTCCATGCTTGGGTTCTAACCTGTTGCCT (site CTCCATGCTAG)
Response: satisfied

Prompt: Further, for CTACGTCCTTGGGTTCTAACCTGTTGCTC (site CTACGTCCTCA) ?
Response: satisfied

Prompt: Now this one: TGTGCGGCTTGGGTTCTAACCTGTTGCCT (site GGTGCGGCTAG)
Response: satisfied

Prompt: Would you kindly repeat that for AGGTCTACTTGGGTTCTAACCTGTTGCGG (site GAAAACTCTAG) ?
Response: not satisfied

Prompt: Same question for TATAGCTCTTGGGTTCTAACCTGTTGCCT (site AATAGCTCTAG) please.
Response: not satisfied

Prompt: Item: TAATCGGCTTGGGTTCTAACCTGTTGCCT (site TAATCGGCTAG)
Response: satisfied

Hello, the source for this data is the supplement of paper PMC11208160, in case you need it.
